experiment: Partition coefficient in an aqueous 1-octanol buffer system by the shake-flask method; type: physicochemical; details: 1-octanol/aqueous buffer
# reported logD; entries follow
propertyName: logD

molecule	propertyName	resultNumber
N=C(N)NC(=N)Nc1cc(Cl)c(Cl)c(Cl)c1	logD	1.47
N=C(N)NC(=N)Nc1ccccc1 [PHENYL BIGUANIDE]	logD	-1.17
NC(N)=Nc1cccc(Cl)c1	logD	-0.64
N=C(N)Nc1cc(Cl)c(Cl)c(Cl)c1	logD	1.16
N=C(N)NC(=N)Nc1cccc(Cl)c1	logD	-0.38
N=C(N)Nc1ccccc1 [PHENYLGUANIDINE]	logD	-1.32

====

target: Serotonin 3 (5-HT3) receptor; test: Binding affinity for 5-HT3 receptor of NG108-15 cells using [3H]GR-65630

compound	testSystem	Ki
Nc1ncnc(Nc2cccc(Cl)c2)n1	Serotonin 3 (5-HT3) receptor	> 10 µM
Nc1nc2ccc(Cl)cc2[nH]1	Serotonin 3 (5-HT3) receptor	0.725 µM
CC1(C)N=C(N)N=C(N)N1c1cccc(Cl)c1	Serotonin 3 (5-HT3) receptor	> 10 µM
Nc1nccc(Nc2cccc(Cl)c2)n1	Serotonin 3 (5-HT3) receptor	1.46 µM
NC1=Nc2cc(Cl)ccc2CN1	Serotonin 3 (5-HT3) receptor	0.034 µM
Nc1ncnc(Nc2ccccc2)n1	Serotonin 3 (5-HT3) receptor	> 10 µM
Nc1ncnc(Nc2ccc3ccccc3c2)n1	Serotonin 3 (5-HT3) receptor	> 10 µM
CC1N=C(N)N=C(N)N1c1cccc(Cl)c1 (centres undefined)	Serotonin 3 (5-HT3) receptor	> 10 µM
Nc1nc(Nc2cccc(Cl)c2)n[nH]1	Serotonin 3 (5-HT3) receptor	> 10 µM
